- run parameters: rat liver microsomes 0.5 mg/mL, 1 uM compound, NADPH
test readout: Rat. Pred. Cl.

Qu. Value lookup for Rat. Pred. Cl.; key = `COC(=O)N[C@H](C(=O)N[C@@H](Cc1ccc(C#Cc2ccc(-c3cn4c(n3)CN(C)C(=O)C4)cc2)cc1)[C@@H](O)CN(Cc1c(F)cc(-c2ccn(C(F)F)n2)cc1F)NC(=O)[C@@H](NC(=O)OC)C(C)(C)C(F)(F)F)C(C)(C)C(F)(F)F`
Ans. <0.18 L/H/kg

Qu. Value lookup for Rat. Pred. Cl.; key = COC(=O)N[C@H](C(=O)N[C@@H](Cc1ccccc1)[C@@H](O)CN(Cc1ccc(-c2ccccn2)cc1)NC(=O)[C@@H](NC(=O)OC)C(C)(C)C)C(C)(C)C [atazanavir, reference compound]
Ans. 3.7 L/H/kg

====

Please go through the items and note down their Human Pred Cl..
- run parameters: human liver microsomes 0.5 mg/mL, 1 uM compound, NADPH
- Experimental: Liver Microsomal Stability Protocol Test compounds and one control compound (verapamil) were tested in 3 different species in duplicate sets. Test compound concentration: 1 uM; Protein concentration: 0.5 mg/mL (for dog, rat, and human liver microsomes); Cofactor: NADPH-Regenerating system (NRS) solution; Time-points: 2, 12, 25, 45, and 65 minutes. […] After plates were vortexed, they were centrifuged for 30 minutes to remove proteins. […] In vitro measured t1/2 was used to calculate Clint values.

Qu. Value lookup for Human Pred Cl.; key = COC(=O)N[C@H](C(=O)N[C@@H](Cc1ccc(C#Cc2ccc(N3C[C@H]4C[C@@H]3CN4C3COC3)nc2)cc1)[C@@H](O)CN(Cc1c(F)cc(-c2ccn(CC(F)F)n2)cc1F)NC(=O)[C@@H](NC(=O)OC)C(C)(C)C(F)(F)F)C(C)(C)C(F)(F)F [Example 43]
Ans. 0.16 L/H/kg

Qu. Value lookup for Human Pred Cl.; key = COC(=O)N[C@H](C(=O)N[C@@H](Cc1ccc(C#Cc2ccc(N3C[C@H]4C[C@@H]3CN4C3COC3)nc2)cc1)[C@@H](O)CN(Cc1c(F)cc(-c2ccn(C(F)F)n2)cc1F)NC(=O)[C@@H](NC(=O)OC)C(C)(C)C(F)(F)F)C(C)(C)C(F)(F)F [Example 173]
Ans. <0.11 L/H/kg

Qu. Value lookup for Human Pred Cl.; key = COC(=O)N[C@H](C(=O)N[C@@H](Cc1ccc(C#Cc2ccc(N3CCN(C4COC4)CC3)nc2)cc1)[C@@H](O)CN(Cc1c(F)cc(-c2cc(F)ccn2)cc1F)NC(=O)[C@@H](NC(=O)OC)C(C)(C)C(F)(F)F)C(C)(C)C(F)(F)F [Example 98]
Ans. 0.26 L/H/kg

Qu. Value lookup for Human Pred Cl.; key = COC(=O)N[C@H](C(=O)NN(Cc1c(F)cc(-c2ccn(C(F)F)n2)cc1F)C[C@H](O)[C@H](Cc1ccc(-c2cnn(C(F)F)c2)cc1)NC(=O)[C@@H](NC(=O)OC)C(C)(C)C(F)(F)F)C(C)(C)C [Example 218]
Ans. 0.92 L/H/kg

Qu. Value lookup for Human Pred Cl.; key = COC(=O)N[C@H](C(=O)N[C@@H](Cc1ccc(C#Cc2cnc(N3CCN(C)C(=O)C3)nc2)cc1)[C@@H](O)CN(Cc1c(F)cc(-c2ccn(C(F)F)n2)cc1F)NC(=O)[C@@H](NC(=O)OC)C(C)(C)C(F)(F)F)C(C)(C)C(F)(F)F [Example 159]
Ans. <0.11 L/H/kg

Qu. Value lookup for Human Pred Cl.; key = COC(=O)N[C@H](C(=O)N[C@@H](Cc1ccc(C#Cc2cnc(N3CCN(C4COC4)CC3)nc2)cc1)[C@@H](O)CN(Cc1c(F)cc(-c2ncccn2)cc1F)NC(=O)[C@@H](NC(=O)OC)C(C)(C)C(F)(F)F)C(C)(C)C(F)(F)F [Example 88]
Ans. <0.11 L/H/kg

Qu. Value lookup for Human Pred Cl.; key = COC(=O)N[C@H](C(=O)NN(Cc1c(F)cc(-c2ncccn2)cc1F)C[C@H](O)[C@H](Cc1ccc(C#Cc2ccc(N3C[C@H]4C[C@@H]3CN4C3COC3)nc2)cc1)NC(=O)[C@@H](NC(=O)OC)C(C)(C)C(F)(F)F)C(C)(C)C [Example 95]
Ans. 0.38 L/H/kg

Qu. Value lookup for Human Pred Cl.; key = COC(=O)N[C@H](C(=O)N[C@@H](Cc1ccc(C#Cc2ccc(N3CC4(C3)CN(C3COC3)C4)nc2)cc1)[C@@H](O)CN(Cc1c(F)cc(-c2ccn(C(F)F)n2)cc1F)NC(=O)[C@@H](NC(=O)OC)C(C)(C)C(F)(F)F)C(C)(C)C(F)(F)F [Example 163]
Ans. <0.11 L/H/kg

====

- run parameters: rat, microsomes
test readout: Rat. Pred. Cl.

Qu. Value lookup for Rat. Pred. Cl.; key = `COC(=O)N[C@H](C(=O)N[C@@H](Cc1ccc(C#Cc2ccc(N3CC4CCC(C3)N4C3COC3)nc2)cc1)[C@@H](O)CN(Cc1c(F)cc(-c2ccn([C@H]3CCOC3)n2)cc1F)NC(=O)[C@@H](NC(=O)OC)C(C)(C)C(F)(F)F)C(C)(C)C(F)(F)F`
Ans. 1.13 L/H/kg

Qu. Value lookup for Rat. Pred. Cl.; key = `COC(=O)N[C@H](C(=O)N[C@@H](Cc1ccc(C#Cc2ccc(N3CC4COCC(C3)N4C3COC3)nc2)cc1)[C@@H](O)CN(Cc1c(F)cc(-c2ccn(C(F)F)n2)cc1F)NC(=O)[C@@H](NC(=O)OC)C(C)(C)C(F)(F)F)C(C)(C)C(F)(F)F`
Ans. <0.18 L/H/kg

Qu. Value lookup for Rat. Pred. Cl.; key = `COC(=O)N[C@H](C(=O)N[C@@H](Cc1ccc(C#Cc2cnc(N3CC4CCC(C3)N4C3COC3)nc2)cc1)[C@@H](O)CN(Cc1c(F)cc(-c2cn(C(F)F)nn2)cc1F)NC(=O)[C@@H](NC(=O)OC)C(C)(C)C(F)(F)F)C(C)(C)C(F)(F)F`
Ans. 0.24 L/H/kg

Qu. Value lookup for Rat. Pred. Cl.; key = `COC(=O)N[C@H](C(=O)N[C@@H](Cc1ccc(C#Cc2ccc(N3CC4CC(C3)N4C3COC3)nc2)cc1)[C@@H](O)CN(Cc1c(F)cc(-c2cnn(C(F)F)c2)cc1F)NC(=O)[C@@H](NC(=O)OC)C(C)(C)C(F)(F)F)C(C)(C)C(F)(F)F`
Ans. 0.65 L/H/kg

====

- run parameters: rat liver microsomes 0.5 mg/mL, 1 uM compound, NADPH
test readout: Rat. Pred. Cl.

Qu. Value lookup for Rat. Pred. Cl.; key = `COC(=O)N[C@H](C(=O)N[C@@H](Cc1ccc(C#Cc2ccc(N3CCN(C4CCOCC4)CC3)nc2)cc1)[C@@H](O)CN(Cc1c(F)cc(-c2cnn(C(F)F)c2)cc1F)NC(=O)[C@@H](NC(=O)OC)C(C)(C)C(F)(F)F)C(C)(C)C(F)(F)F`
Ans. <0.18 L/H/kg

Qu. Value lookup for Rat. Pred. Cl.; key = `COC(=O)N[C@H](C(=O)N[C@@H](Cc1ccc(C#Cc2cnc(N3CCN(C4COC4)CC3)nc2)cc1)[C@@H](O)CN(Cc1c(F)cc(-c2cnn(C(F)F)c2)cc1F)NC(=O)[C@@H](NC(=O)OC)C(C)(C)C(F)(F)F)C(C)(C)C(F)(F)F`
Ans. 0.32 L/H/kg

Qu. Value lookup for Rat. Pred. Cl.; key = `COC(=O)N[C@H](C(=O)N[C@@H](Cc1ccc(C#Cc2cnc(N3C[C@H]4C[C@@H]3CN4C3COC3)nc2)cc1)[C@@H](O)CN(Cc1c(F)cc(-c2ccn(C3CC3)n2)cc1F)NC(=O)[C@@H](NC(=O)OC)C(C)(C)C(F)(F)F)C(C)(C)C(F)(F)F`
Ans. 0.75 L/H/kg

Qu. Value lookup for Rat. Pred. Cl.; key = COC(=O)N[C@H](C(=O)N[C@@H](Cc1ccc(C#Cc2ccc(N3CCN(C4CCOC4)CC3)nc2)cc1)[C@@H](O)CN(Cc1c(F)cc(-c2cnn(C(F)F)c2)cc1F)NC(=O)[C@@H](NC(=O)OC)C(C)(C)C(F)(F)F)C(C)(C)C(F)(F)F (some centres unmarked)
Ans. 0.28 L/H/kg

Qu. Value lookup for Rat. Pred. Cl.; key = `COC(=O)N[C@H](C(=O)NN(Cc1c(F)cc(-c2ncccn2)cc1F)C[C@H](O)[C@H](Cc1ccc(C#Cc2ccc(N3C[C@H]4C[C@@H]3CN4C3COC3)nc2)cc1)NC(=O)[C@@H](NC(=O)OC)C(C)(C)C(F)(F)F)C(C)(C)C`
Ans. 1.39 L/H/kg

====

- assay comment: 3H Human Predicted Clearance Assay (tritiated analogs)
- Assay type: in vitro ADME
- Set-up: unit not given here
- run parameters: tritiated analogs, human liver microsomes
Please go through the items and note down their 3H Human Predicted Cl..
Keep it simple and answer with nothing but the number.

Qu. Value lookup for 3H Human Predicted Cl.; key = COC(=O)N[C@H](C(=O)N[C@@H](Cc1ccc(C#Cc2cnc(N3CCN(C4COC4)CC3)nc2)cc1)[C@@H](O)CN(Cc1c(F)cc(-c2ncccn2)cc1F)NC(=O)[C@@H](NC(=O)OC)C(C)(C)C(F)(F)F)C(C)(C)C(F)(F)F [Example 88]
Ans. 0.08

Qu. Value lookup for 3H Human Predicted Cl.; key = COC(=O)N[C@H](C(=O)N[C@@H](Cc1ccc(C#Cc2ccc(N3C[C@H]4C[C@@H]3CN4C3COC3)nc2)cc1)[C@@H](O)CN(Cc1c(F)cc(-c2ccn(C(F)F)n2)cc1F)NC(=O)[C@@H](NC(=O)OC)C(C)(C)C(F)(F)F)C(C)(C)C(F)(F)F [Example 173]
Ans. 0.14

Qu. Value lookup for 3H Human Predicted Cl.; key = COC(=O)N[C@H](C(=O)N[C@@H](Cc1ccc(C#Cc2ccc(N3CCN4CCOC[C@H]4C3)nc2)cc1)[C@@H](O)CN(Cc1c(F)cc(-c2ccn(C(F)F)n2)cc1F)NC(=O)[C@@H](NC(=O)OC)C(C)(C)C(F)(F)F)C(C)(C)C(F)(F)F [Example 51]
Ans. 0.11

Qu. Value lookup for 3H Human Predicted Cl.; key = COC(=O)N[C@H](C(=O)N[C@@H](Cc1ccc(C#Cc2ccc(N3CC4CCC(C3)N4C3COC3)nc2)cc1)[C@@H](O)CN(Cc1c(F)cc(-c2ccn(C(F)F)n2)cc1F)NC(=O)[C@@H](NC(=O)OC)C(C)(C)C(F)(F)F)C(C)(C)C(F)(F)F [Example 58]
Ans. 0.05

The values you see were collected from patent US10294234B2.
